Origin of measurements: PubChem BioAssay

biological target: Focal adhesion kinase 1 (Homo sapiens) (UniProt Q05397); assay: small-molecule microarray binders of FAK, primary screen, biochemical, 635/667 nm fluorescence, BSA, DTT (AID 1130); conditions: PTK2 binding, 635 nm fluorescence, higher = more signal;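 further: composite of spot emission at 667 nm and signal to noise over triplicate slides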
Sequence (Q05397 whole entry, looked up): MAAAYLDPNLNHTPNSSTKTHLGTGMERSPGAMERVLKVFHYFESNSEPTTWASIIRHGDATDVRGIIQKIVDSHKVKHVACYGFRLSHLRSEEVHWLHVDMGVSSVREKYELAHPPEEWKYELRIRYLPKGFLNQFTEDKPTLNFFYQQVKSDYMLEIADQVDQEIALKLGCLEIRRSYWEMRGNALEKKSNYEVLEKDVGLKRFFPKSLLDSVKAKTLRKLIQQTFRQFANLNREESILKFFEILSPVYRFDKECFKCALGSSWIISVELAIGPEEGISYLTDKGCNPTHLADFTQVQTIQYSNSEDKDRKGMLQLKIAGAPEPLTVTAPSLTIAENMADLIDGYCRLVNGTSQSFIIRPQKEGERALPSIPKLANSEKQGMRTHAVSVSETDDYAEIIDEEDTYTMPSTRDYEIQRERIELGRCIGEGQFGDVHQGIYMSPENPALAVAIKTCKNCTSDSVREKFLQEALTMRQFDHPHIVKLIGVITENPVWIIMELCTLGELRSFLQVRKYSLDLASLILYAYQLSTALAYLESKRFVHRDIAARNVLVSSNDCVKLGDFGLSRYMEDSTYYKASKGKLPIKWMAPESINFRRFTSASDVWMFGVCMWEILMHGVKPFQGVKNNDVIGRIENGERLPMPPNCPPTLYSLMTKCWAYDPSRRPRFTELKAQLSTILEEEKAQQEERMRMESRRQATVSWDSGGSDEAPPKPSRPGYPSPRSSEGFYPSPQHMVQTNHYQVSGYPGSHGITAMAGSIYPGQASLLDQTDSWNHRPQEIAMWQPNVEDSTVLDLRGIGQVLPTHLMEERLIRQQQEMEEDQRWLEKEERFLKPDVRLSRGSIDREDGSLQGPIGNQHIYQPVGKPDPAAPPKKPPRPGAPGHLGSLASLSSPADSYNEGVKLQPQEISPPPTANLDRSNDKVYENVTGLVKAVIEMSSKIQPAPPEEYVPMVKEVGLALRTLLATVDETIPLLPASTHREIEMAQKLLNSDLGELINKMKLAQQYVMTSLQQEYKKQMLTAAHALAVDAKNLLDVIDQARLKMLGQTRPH
METRIC_NAME: composite z-score
Just the number, please, no unit after it.

COMPOUND	METRIC_NAME	NUMERIC_RESULT
Cc1ccc(F)cc1S(=O)(=O)N[C@@H]1CCN(Cc2ccc(Oc3ccccc3)cc2)C1	composite z-score	-0.271
O=C1O[C@@H](c2ccccc2)[C@@H](c2ccccc2)N2[C@@H](c3ccccc3OCCO)[C@]3(C(=O)Nc4ccccc43)[C@@H](C(=O)NC[C@H](O)c3ccccc3)[C@H]12	composite z-score	0.682
C=C1C2CC3C(=C4C(CO[C@@H]4[C@H]4CCCN4S(=O)(=O)c4ccccc4[N+](=O)[O-])C4C(=O)N(C)C(=O)C34)CC2C(=O)N1C (stereo partly specified)	composite z-score	0.0722

Incoming: Report composite z-score, nothing else, for this compound: "C=CC[C@@]12N=C(c3ccc(OCCCO)cc3)O[C@@H]1c1ccccc1N(CCS(=O)(=O)c1ccccc1)C2=O"
Outgoing: 0.87

Incoming: Report composite z-score, nothing else, for this compound: "COCCOC(=O)N1C(=O)[C@@]2(c3cc(C#Cc4ccc(OC)cc4)ccc31)[C@H](C(=O)N1CCCCCCC1)[C@H]1C(=O)O[C@H](c3ccccc3)[C@H](c3ccccc3)N1[C@@H]2c1ccc(O)cc1"
Outgoing: 0.277

Incoming: Report composite z-score, nothing else, for this compound: "COc1ccc([Si](C)(C)[C@H]2[C@H](CCn3cc([C@H](O)c4ccccc4)nn3)O[C@@]3(C(=O)N(Cc4ccc(N5CCOC5=O)cc4)c4ccccc43)[C@@H]2C)cc1"
Outgoing: -0.775
